- System: cancer cell lines from the cancer cell line encyclopedia (CCLE)
- Assay: Cell line profiling (CLiP) proliferation experiment
- Format: cell-based
- Condition Info: T24 (urinary_tract, transitional_cell_carcinoma); read-out: Crossing Point
pIC50: −log10 of the molar value.
Assay Metric: pIC50

q: Look up and report measured pIC50 for this entry: `CC(C)[C@@]12C[C@@H](O)[C@@](C)(O1)[C@@H]1CC[C@@H](C)[C@H]1[C@@H]2OC(=O)/C=C/c1ccccc1`
a: < 4.52

* * *

- Test system: cancer cell lines from the cancer cell line encyclopedia (CCLE)
- Assay: Cell line profiling (CLiP) proliferation experiment
- Assay type: cell-based
- Condition Info: Homo sapiens, SJRH30, cell line SJRH30, soft_tissue; read-out: Crossing Point
Assay Metric: IC50 (µM)
Answers are plain numbers, in µM.

q: Tell us which IC50 value is on record for CC(C)[C@@]12C[C@@H](O)[C@@](C)(O1)[C@@H]1CC[C@@H](C)[C@H]1[C@@H]2OC(=O)/C=C/c1ccccc1 [Englerin B]
a: 17.4

Source of measurements: paper PMC4476799
